# Target desc: hSPP (Homo sapiens, UniProt Q8TCT9)
# Construct: expressed in transfected cells; host or cells: HEK 293T
# Sequence (Q8TCT9 whole entry): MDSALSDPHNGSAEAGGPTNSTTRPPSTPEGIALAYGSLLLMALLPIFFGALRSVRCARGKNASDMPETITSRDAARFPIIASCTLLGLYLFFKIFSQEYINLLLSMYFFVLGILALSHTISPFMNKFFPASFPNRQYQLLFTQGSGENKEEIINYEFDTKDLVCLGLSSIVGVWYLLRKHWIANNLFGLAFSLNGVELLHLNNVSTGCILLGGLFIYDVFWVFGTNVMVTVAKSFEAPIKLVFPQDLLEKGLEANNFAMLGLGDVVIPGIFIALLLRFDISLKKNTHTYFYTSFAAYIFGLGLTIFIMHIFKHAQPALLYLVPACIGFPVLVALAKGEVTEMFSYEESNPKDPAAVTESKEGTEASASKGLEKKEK
# Assay comment: FBA/hSPP co-transfected HEK 293T cell cleavage assay (Aβ ELISA, Western blot, IP/MS)
# Assay type: cell-based
# Measurement conditions: 25 μM, ELISA
Readout: inhibition of xAβ1-25/K16A secretion (in words)

Provide the documented inhibition of xAβ1-25/K16A secretion (in words) with hSPP (Homo sapiens, UniProt Q8TCT9) as the system for `CC(C)C[C@H](NC(=O)[C@H](Cc1ccccc1)C[C@@H](O)[C@H](Cc1ccccc1)NC(=O)OC(C)(C)C)C(=O)N[C@@H](Cc1ccccc1)C(N)=O` largely inhibited

Quick one: `C[C@H](NC(=O)[C@@H](O)c1cc(F)cc(F)c1)C(=O)N[C@@H]1C(=O)N(C)c2ccccc2-c2ccccc21` largely inhibited

Quick one: CC(C)C[C@H](NC(=O)OCc1ccccc1)C(=O)N[C@@H](CC(C)C)C(=O)NCC(=O)CNC(=O)[C@H](CC(C)C)NC(=O)[C@H](CC(C)C)NC(=O)OCc1ccccc1 [(Z-LL)2 ketone] largely inhibited
